- tested_on: APOL1 (Homo sapiens)
- Sequence (O14791 1-398 S342G/I384M): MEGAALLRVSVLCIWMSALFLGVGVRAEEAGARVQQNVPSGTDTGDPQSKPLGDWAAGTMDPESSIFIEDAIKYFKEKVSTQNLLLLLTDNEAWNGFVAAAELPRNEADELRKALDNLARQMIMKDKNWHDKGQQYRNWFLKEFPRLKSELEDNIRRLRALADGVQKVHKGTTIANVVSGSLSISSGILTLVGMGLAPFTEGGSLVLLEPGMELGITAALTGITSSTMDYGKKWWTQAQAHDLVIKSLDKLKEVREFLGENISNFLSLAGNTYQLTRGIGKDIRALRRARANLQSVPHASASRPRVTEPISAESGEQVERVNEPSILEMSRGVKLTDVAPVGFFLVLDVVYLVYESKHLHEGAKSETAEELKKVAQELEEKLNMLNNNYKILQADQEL
- assay: Multi-Tox Assay (MultiTox-Fluor Multiplex Cytotoxicity Assay in tet-inducible APOL1 T-REx-HEK293 cells; Table 46 does not say which APOL1 variant G0/G1/G2)
- Format: cell-based
- assay_setup: APOL1 variant not given
measure_name: IC90

{"columns": ["molecule", "IC90"],
 "data": [
  ["C[C@@H](CO)CCn1cc([C@@H]2C[C@]3(C[C@H](C)N2)OC[C@@H](O)c2cc(Cl)sc23)nn1", "50 to 500 nM"]
]}

Request: What IC90 appears in the records for this molecule with APOL1 (Homo sapiens)? CCC1CC2(CC(c3cn(C)nn3)N1)OCCc1cc(Cl)sc12 (stereo not shown)
Result: 50 to 500 nM

Request: Next record, please: C[C@@H]1CC2(C[C@@H](c3cn(C)nn3)N1)OCCc1cc(Cl)sc12 (single isomer, unassigned)
Result: 50 to 500 nM

Request: Next record, please: C[C@H]1C[C@@]2(C[C@@H](c3cn(C)nn3)N1)OCC(O)(C(F)F)c1cc(Cl)sc12 (single isomer, unassigned)
Result: < 50 nM
